# STUDY_SYSTEM: rat B1R (bradykinin receptor 1) (Rattus norvegicus, UniProt P97583)
# Construct: expressed in transfected cells; host or cells: CHO K1 cells
# Sequence (P97583 whole entry): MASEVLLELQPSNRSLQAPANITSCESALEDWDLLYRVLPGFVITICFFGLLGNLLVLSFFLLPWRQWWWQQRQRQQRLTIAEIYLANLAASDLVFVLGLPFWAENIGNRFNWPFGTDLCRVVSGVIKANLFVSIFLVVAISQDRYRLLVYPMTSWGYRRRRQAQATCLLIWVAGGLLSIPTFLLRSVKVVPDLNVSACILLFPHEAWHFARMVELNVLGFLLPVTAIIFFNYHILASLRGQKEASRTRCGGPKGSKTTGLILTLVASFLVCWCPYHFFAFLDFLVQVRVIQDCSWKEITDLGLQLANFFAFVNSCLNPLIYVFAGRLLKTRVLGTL
# EXPERIMENT_NOTES: FLIPR Ca2+ assay (Fluo-4) on CHO K1 cells stably transfected with the B1R gene of the rat (rB1R cells): % inhibition at 10 μM / IC50, agonist Des-Arg9-bradykinin
# Assay type: cell-based
# MEASUREMENT_SETUP: CHO-K1, rat B1R
# Text: The agonistic or antagonistic action of substances can be quantified on the bradykinin receptor 1 (B1R) of the human and rat species with ectopically expressing cell lines (CHO K1 cells) and with the aid of a Ca^2+-sensitive dyestuff (Fluo-4) in a fluorescent imaging plate reader (FLIPR). […] The agonistic or antagonistic action of substances can be determined on the bradykinin receptor 1 (B1R) of the human and rat species with the following assay. […]
REPORTED_METRIC: inhibition at 10 µM (%)

Solved entries (count: 5):
O=C(NC1CCc2ccc(C(=O)N3CCC4(CCN(Cc5c(F)cccc5F)CC4)CC3)cc21)c1ccccc1Cl (stereo not shown)	98
N#Cc1ccccc1CN1CCC2(CC1)CCN(C(=O)c1ccc3c(c1)C(NC(=O)c1cccc(Cl)c1Cl)CC3)C2 (stereo not shown)	86
N#Cc1cccc(NC(=O)N2CCC3(CC2)CCN(C(=O)c2ccc4c(c2)C(NC(=O)c2ccccc2Cl)CC4)CC3)c1 (stereo not shown)	101
Cn1ccc2cc(S(=O)(=O)N3CCC4(CCN(C(=O)c5ccc6c(c5)C(N(C(=O)c5ccccc5Cl)C5CC5)CC6)C4)CC3)ccc21 (stereo not shown)	57
O=C(NC1CCc2ccc(C(=O)N3CCC4(CCN(Cc5ccc6nccnc6c5)CC4)C3)cc21)c1cc(C(F)(F)F)ccc1Cl (stereo not shown)	68

P: O=C(NC1CCc2ccc(C(=O)N3CCC4(CCN(CCc5ccccc5)CC4)CC3)cc21)c1cc(Cl)ccc1F (stereo not shown)
Q: O=C(c1ccc2c(c1)CC[C@H]2NS(=O)(=O)c1ccccc1Cl)N1CCC2(CCN(c3ccncc3)CC2)C1
Task: Hey, which is lower on measured inhibition at 10 µM, P or Q ? I would appreciate it if you answered with the label of your choice.
Result: P
(P: 53%, Q: 89%)

FYI, the data here is from patent US8455475B2.
